Origin of measurements: ChEMBL document CHEMBL1138058

experiment: Half life in cynomolgus monkey at 5 mg/kg, po; type: ADME, organism-based, Macaca fascicularis; design: dose 5 mg/kg, route oral; settings: in vivo
Observation Type: half-life (h)
Give just the numeric value; h need not be written.

Fill in: half-life of "O=C(NC1CC1)c1cc(NCc2cnc(Nc3ccccn3)s2)c(F)cc1F" is ___
7.1

* * *

test: Half life in Sprague-Dawley rat at 50 mg/kg, po; assay type: ADME, organism-based; set-up: dose 50 mg/kg, route oral; details: in vivo
Observation Type: half-life (h)
Give just the numeric value; h need not be written.

Fill in: half-life of "O=C(NC1CC1)c1cc(NCc2cnc(Nc3ccccn3)s2)c(F)cc1F" is ___
2.2

* * *

test: Mean residence time in Balb/C mouse at 90 mg/kg, po; assay type: ADME, organism-based; design: dose 90 mg/kg, route oral; conditions: in vivo
Observation Type: MRT (h)
Give just the numeric value; h need not be written.

Fill in: MRT of "O=C(NC1CC1)c1cc(NCc2cnc(Nc3ccccn3)s2)c(F)cc1F" is ___
3.4

* * *

test: Clearance in Sprague-Dawley rat at 10 mg/kg, iv; format: ADME, organism-based; parameters: dose 10 mg/kg, route intravenous; details: in vivo
Observation Type: clearance

Fill in: clearance of "O=C(NC1CC1)c1cc(NCc2cnc(Nc3ccccn3)s2)c(F)cc1F" is ___
13.6 mL/min/kg

* * *

system: Rattus norvegicus; assay: AUC in Sprague-Dawley rat at 50 mg/kg, po; format: ADME, organism-based, Plasma; parameters: dose 50 mg/kg, route oral; conditions: in vivo
Observation Type: AUC
Please provide the amount together with its unit, number first.

Fill in: AUC of "O=C(NC1CC1)c1cc(NCc2cnc(Nc3ccccn3)s2)c(F)cc1F" is ___
202 µM·h

* * *

biological target: Cyclin-dependent kinase 2 (Homo sapiens)
pIC50: −log10 of the molar value.
Observation Type: pIC50

Fill in: pIC50 of "O=C(NC1CC1)c1cc(NCc2cnc(Nc3ccccn3)s2)c(F)cc1F" is ___
< 5.00

* * *

target: Protein kinase C delta type (Homo sapiens, UniProt Q05655); test: Inhibition of PKCdelta
Sequence (Q05655 whole entry): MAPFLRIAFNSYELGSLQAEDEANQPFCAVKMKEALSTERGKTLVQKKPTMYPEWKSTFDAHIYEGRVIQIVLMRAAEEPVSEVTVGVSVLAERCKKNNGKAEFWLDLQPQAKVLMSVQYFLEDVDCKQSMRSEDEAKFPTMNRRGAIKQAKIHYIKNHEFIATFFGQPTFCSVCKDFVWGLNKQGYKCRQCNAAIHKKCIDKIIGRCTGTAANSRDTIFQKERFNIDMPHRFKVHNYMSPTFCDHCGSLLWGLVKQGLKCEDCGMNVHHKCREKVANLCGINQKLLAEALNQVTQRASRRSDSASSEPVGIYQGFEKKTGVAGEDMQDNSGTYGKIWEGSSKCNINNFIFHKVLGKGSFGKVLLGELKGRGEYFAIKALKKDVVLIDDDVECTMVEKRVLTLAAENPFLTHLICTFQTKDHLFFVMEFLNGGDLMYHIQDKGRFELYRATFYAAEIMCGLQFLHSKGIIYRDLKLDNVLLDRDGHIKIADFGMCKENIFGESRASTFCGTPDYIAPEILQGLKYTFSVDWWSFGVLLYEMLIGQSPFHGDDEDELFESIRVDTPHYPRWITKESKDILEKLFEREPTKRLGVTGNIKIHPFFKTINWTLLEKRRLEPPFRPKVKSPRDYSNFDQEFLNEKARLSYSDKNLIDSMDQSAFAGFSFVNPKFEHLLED
Observation Type: IC50

Fill in: IC50 of "O=C(NC1CC1)c1cc(NCc2cnc(Nc3ccccn3)s2)c(F)cc1F" is ___
> 40 µM

* * *

assay: Cmax in Sprague-Dawley rat at 50 mg/kg, po; type: ADME, organism-based; design: dose 50 mg/kg, route oral; conditions: in vivo
Observation Type: Cmax (µM)
Give just the numeric value; µM need not be written.

Fill in: Cmax of "O=C(NC1CC1)c1cc(NCc2cnc(Nc3ccccn3)s2)c(F)cc1F" is ___
44

* * *

molecular target: UniProt:P11362
Sequence (P11362 whole entry): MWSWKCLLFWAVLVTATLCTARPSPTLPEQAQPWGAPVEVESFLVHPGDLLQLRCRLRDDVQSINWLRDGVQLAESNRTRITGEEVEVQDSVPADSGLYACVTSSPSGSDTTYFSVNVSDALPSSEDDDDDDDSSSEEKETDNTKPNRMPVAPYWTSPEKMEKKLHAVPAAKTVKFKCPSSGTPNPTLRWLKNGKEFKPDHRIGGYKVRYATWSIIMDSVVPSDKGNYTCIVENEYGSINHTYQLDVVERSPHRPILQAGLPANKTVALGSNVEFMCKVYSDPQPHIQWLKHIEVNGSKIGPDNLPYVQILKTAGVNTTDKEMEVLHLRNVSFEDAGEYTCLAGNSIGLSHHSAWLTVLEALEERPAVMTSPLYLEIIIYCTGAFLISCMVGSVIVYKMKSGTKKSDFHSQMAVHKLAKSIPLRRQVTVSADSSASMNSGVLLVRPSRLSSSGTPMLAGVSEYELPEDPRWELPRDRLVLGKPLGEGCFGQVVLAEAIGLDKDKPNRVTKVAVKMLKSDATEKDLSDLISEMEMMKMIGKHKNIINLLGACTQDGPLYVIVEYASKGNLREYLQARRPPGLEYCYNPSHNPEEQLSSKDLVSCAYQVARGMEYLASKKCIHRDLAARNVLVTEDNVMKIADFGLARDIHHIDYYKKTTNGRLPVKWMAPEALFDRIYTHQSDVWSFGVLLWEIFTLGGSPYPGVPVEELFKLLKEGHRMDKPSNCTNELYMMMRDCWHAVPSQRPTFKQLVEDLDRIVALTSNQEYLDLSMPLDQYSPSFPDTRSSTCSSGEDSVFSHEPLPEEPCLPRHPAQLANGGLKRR
Observation Type: IC50

API: value(readout=IC50, system=UniProt:P11362) for record "O=C(NC1CC1)c1cc(NCc2cnc(Nc3ccccn3)s2)c(F)cc1F"
> 5 µM

* * *

biological target: Inhibitor of NF-kappa-B kinase (IKK) (Homo sapiens, UniProt O14920+O15111+Q9Y6K9); test: Inhibition of IKK
Sequence (O14920 whole entry): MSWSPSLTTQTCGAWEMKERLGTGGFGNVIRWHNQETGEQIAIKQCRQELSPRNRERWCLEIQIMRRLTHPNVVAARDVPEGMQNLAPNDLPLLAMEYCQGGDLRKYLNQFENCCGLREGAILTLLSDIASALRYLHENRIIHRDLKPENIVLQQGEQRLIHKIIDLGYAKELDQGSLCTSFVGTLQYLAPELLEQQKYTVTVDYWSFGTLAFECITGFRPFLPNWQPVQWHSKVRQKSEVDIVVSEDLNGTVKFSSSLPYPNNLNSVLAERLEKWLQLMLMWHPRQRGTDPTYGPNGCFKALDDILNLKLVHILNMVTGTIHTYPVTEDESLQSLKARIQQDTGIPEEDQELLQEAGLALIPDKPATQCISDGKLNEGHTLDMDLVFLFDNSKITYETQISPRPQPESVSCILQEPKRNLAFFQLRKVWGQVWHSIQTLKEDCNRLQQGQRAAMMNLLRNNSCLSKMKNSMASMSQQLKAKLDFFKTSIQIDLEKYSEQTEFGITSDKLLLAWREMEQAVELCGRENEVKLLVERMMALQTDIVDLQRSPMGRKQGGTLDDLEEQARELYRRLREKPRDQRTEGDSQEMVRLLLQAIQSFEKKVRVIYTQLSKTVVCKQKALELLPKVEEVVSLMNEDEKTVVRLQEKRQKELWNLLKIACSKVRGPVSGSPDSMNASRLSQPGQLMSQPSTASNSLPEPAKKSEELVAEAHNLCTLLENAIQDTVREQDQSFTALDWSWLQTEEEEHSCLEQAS
Sequence (O15111 whole entry): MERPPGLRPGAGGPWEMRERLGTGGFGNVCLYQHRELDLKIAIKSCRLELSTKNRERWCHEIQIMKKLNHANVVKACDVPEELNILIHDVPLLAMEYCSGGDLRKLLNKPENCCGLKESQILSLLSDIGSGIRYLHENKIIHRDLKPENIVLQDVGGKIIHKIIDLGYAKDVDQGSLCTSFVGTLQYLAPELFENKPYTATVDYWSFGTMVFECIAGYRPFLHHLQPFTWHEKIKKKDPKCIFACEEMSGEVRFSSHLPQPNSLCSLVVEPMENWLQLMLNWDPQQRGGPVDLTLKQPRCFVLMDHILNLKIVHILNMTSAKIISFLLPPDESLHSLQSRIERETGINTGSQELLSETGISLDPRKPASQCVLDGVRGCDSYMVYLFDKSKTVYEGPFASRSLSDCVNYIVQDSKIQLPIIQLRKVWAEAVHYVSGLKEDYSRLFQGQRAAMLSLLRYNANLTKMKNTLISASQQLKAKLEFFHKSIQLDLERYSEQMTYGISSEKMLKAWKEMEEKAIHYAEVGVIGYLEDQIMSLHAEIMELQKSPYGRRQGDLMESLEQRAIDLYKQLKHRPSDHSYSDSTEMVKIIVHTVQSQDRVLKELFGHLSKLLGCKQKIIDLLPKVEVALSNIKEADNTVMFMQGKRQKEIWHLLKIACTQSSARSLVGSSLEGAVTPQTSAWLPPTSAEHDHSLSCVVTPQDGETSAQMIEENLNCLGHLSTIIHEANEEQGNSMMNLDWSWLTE
Sequence (Q9Y6K9 whole entry): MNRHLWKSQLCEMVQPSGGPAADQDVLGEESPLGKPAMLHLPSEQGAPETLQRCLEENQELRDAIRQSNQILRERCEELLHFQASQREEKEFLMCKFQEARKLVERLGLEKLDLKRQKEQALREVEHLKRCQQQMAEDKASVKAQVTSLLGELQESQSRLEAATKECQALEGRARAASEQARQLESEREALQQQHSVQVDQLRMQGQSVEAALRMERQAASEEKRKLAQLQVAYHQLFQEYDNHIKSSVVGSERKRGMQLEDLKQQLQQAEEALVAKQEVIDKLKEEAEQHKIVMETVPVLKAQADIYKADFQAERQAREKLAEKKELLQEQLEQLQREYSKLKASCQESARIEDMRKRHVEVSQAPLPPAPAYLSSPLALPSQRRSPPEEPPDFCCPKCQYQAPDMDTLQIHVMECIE
pIC50: −log10 of the molar value.
Observation Type: pIC50

Fill in: pIC50 of "O=C(NC1CC1)c1cc(NCc2cnc(Nc3ccccn3)s2)c(F)cc1F" is ___
< 5.00
